target: 2PT-NBD1 (human CFTR nucleotide-binding domain 1, residues 387-646, with S492P, A534P, I539T) (human, UniProt P13569 388-646, biotinylated for the ELISA (sites not given)); experiment: cell-based or functional assay
Sequence (P13569 388-646 V470M/S492P/A534P/I539T limits assumed): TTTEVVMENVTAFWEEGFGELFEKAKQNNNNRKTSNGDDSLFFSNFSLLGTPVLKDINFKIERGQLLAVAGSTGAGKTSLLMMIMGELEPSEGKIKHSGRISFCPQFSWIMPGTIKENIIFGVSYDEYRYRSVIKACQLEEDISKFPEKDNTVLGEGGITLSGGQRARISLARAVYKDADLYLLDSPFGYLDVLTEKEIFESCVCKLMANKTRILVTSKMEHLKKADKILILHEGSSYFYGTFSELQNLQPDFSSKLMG
assay.metric: increase of Tm (thermal shift assay, DSF) (°C)
Kindly answer with a numeric value in °C, unit omitted.

A selection of reference data follows.
>>> readout_value("Nanobody T2a (VHH, not shown: small tags and cut ends, Llama nanobody; also called Nb T2a; T2a Nb) VHH: QVQLQESGGGLVQAGGSLRLSCAASGSIFRIDAMGWYRQAPGKQRELVAHSTSGGSTDYADSVKGRFTISRDNAKNTVYLQMNSLKPEDTAVYYCNADVRTRWYASNNYWGQGTQVTVSS")
11.2
>>> readout_value("Nanobody T27 (VHH, not shown: small tags and cut ends, Llama nanobody; also called NbT27; T27 Nb) VHH: QVQLQESGGGLEQPGGSLRLSCATSGVIFGINAMGWYRQAPGKQRELVATFTSGGSTNYADFVEGRFTISRDNAKNTVYLQMNGLRPEDTAVYYCHATVVVSRYGLTYDYWGQGTQVTVSS")
11.9
>>> readout_value("Nanobody T8 (VHH, not shown: small tags and cut ends, Llama nanobody; also called Nb T8; T8 Nb) VHH: QVQLQESGGGLVQPGGSLRLSCAASGSTSSINAMGWYRQAPGKQREPVAISSSGGDTRYAEPVKGRFTISRDNAQNKVYLQMNSLKPEDTAVYYCWLNWGRTSVNSWGQGTQVTVSS")
9.3

Lookup: Name the reported increase of Tm (thermal shift assay, DSF) value associated with the protein Nanobody D12 (VHH, not shown: small tags and cut ends, Llama nanobody raised against 2PT-NBD1; produced in E. coli periplasm; also called Nb D12; D12 Nb) VHH: QVQLQESGGGLVQAGSSLRLACAATGSIRSINNMGWYRQAPGKQRGMVAIITRVGNTDYADSVKGRFTISRDNAKNTVYLQMNSLKPEDTATYYCHAEITEQSRPFYLTDDYWGQGTQVTVSS
Found: 13.8
